// provenance: patent US20130330346A1

Biological target: T1, Cynomolgus CXCR2 (cynomolgus, UniProt Q28519 3-353 (rhesus entry))
T1 chain: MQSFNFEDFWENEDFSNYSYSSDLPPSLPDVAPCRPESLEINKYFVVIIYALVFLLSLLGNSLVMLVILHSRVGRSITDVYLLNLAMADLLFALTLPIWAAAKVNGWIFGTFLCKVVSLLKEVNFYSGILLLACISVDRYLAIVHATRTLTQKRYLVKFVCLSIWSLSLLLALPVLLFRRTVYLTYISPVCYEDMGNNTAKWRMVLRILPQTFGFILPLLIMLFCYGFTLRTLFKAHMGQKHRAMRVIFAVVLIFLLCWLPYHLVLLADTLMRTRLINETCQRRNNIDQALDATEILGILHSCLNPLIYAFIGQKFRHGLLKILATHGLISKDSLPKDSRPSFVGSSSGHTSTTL
Assay: cell-based or functional assay
Measurement name: FLIPR IC50 (GRO-α induced calcium release) (nM)
# unit: nM | format: bare number

CXCR20032 (bispecific antibody, Biparatopic: two VHH joined by a GlySer linker; also called 2B2-35GS-163D2; not shown: C-terminal c-myc tag and His6 tag coded by pAX100) EVQLVESGGELVQPGGSLRLSCAASGSILTINAMGWYRQAPGKQRELVVRRTRGGSTTYQDSVKGRFTISADIAKKTMYLQMNSLKPEDTAVYYCMLDDRGGVYWGQGTQVTVSSGGGGSGGGGSGGGGSGGGGSGGGGSGGGGSGGGGSEVQLVESGGGLVQAGGSLRLSCAASGRTFSDYAMGWFRQAPGKEREFVAAITWNGGRVFYTASVKGRFTISRDNAKNTMYLQMNSLKPEDTAVYYCAADKDRRTDYLGHPVAYWGQGTQVTVSS ... 3.65
CXCR20033 (bispecific antibody, Biparatopic: two VHH joined by a GlySer linker; also called 163E3-35GS-2B2; 163E3-2B2; not shown: C-terminal c-myc tag and His6 tag coded by pAX100) EVQLVESGGGLVQPGGSLRLSCVASGRIFSSNAMGWFRQAPGKEREFVAAITWRSGGSAYYADSAKGRFTISRDNAKNTVYLQMNSLKPEDTAVYYCAAGGSSWLSFPPDYWGQGTQVTVSSGGGGSGGGGSGGGGSGGGGSGGGGSGGGGSGGGGSEVQLVESGGELVQPGGSLRLSCAASGSILTINAMGWYRQAPGKQRELVVRRTRGGSTTYQDSVKGRFTISADIAKKTMYLQMNSLKPEDTAVYYCMLDDRGGVYWGQGTQVTVSS ... 4.46
CXCR20020 (bispecific antibody, Biparatopic: two VHH joined by a GlySer linker; also called 127D1-35GS-163D2; 127D1-163D2; not shown: C-terminal c-myc tag and His6 tag coded by pAX100) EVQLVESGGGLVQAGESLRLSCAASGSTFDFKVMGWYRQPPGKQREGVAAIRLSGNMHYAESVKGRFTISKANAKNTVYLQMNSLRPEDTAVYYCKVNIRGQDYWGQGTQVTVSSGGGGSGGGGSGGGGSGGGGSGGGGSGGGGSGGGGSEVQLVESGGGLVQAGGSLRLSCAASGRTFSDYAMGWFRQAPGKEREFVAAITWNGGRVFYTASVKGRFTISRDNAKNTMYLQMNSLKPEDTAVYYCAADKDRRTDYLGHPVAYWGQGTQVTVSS ... 1.64

Consider the additional binder presented here.
Q: Entry CXCR20034 (bispecific antibody, Biparatopic: two VHH joined by a GlySer linker; also called 163D2-35GS-2B2; 163D2-2B2; not shown: C-terminal c-myc tag and His6 tag coded by pAX100) EVQLVESGGGLVQAGGSLRLSCAASGRTFSDYAMGWFRQAPGKEREFVAAITWNGGRVFYTASVKGRFTISRDNAKNTMYLQMNSLKPEDTAVYYCAADKDRRTDYLGHPVAYWGQGTQVTVSSGGGGSGGGGSGGGGSGGGGSGGGGSGGGGSGGGGSEVQLVESGGELVQPGGSLRLSCAASGSILTINAMGWYRQAPGKQRELVVRRTRGGSTTYQDSVKGRFTISADIAKKTMYLQMNSLKPEDTAVYYCMLDDRGGVYWGQGTQVTVSS : reported FLIPR IC50 (GRO-α induced calcium release) = ?
A: 9.47
